Answer each item with its documented IC50.
- TARGET SYSTEM: JAK2 kinase activity on STAT5 in TF1 cells (Homo sapiens)
- Sequence (O60674 whole entry): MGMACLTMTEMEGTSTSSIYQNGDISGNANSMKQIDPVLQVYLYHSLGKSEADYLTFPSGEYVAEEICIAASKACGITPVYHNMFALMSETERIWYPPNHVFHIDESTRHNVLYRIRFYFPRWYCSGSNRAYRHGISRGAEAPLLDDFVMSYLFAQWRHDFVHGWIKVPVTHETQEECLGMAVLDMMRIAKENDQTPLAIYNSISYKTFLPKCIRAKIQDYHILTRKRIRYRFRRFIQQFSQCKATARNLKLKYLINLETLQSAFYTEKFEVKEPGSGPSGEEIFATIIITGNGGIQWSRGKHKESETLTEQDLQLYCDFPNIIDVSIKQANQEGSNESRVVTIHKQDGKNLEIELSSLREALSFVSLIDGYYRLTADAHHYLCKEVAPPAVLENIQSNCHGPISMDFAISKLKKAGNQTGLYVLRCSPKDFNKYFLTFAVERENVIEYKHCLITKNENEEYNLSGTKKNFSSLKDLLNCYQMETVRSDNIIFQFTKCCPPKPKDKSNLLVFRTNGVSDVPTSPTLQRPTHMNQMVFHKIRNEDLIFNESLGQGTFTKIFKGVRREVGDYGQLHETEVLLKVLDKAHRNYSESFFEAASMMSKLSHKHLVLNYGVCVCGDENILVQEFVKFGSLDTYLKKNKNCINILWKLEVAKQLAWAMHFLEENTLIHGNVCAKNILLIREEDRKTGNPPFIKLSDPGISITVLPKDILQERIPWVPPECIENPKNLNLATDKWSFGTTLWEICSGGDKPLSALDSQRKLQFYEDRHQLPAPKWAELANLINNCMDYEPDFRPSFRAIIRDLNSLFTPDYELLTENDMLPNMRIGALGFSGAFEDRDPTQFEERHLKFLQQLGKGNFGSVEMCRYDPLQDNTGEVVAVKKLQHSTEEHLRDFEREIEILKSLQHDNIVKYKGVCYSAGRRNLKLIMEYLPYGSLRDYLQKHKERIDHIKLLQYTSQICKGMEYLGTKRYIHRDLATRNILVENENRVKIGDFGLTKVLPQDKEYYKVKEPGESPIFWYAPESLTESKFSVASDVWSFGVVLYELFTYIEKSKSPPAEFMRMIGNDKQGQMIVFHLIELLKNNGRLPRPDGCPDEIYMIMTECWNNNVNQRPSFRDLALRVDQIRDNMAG
- ASSAY DETAILS: pSTAT5 cell assay (MSD; TF1 cells, 30 ng/mL IL-3 stimulation)
- CONDITION DETAILS: 30 ng/mL IL-3, 15 minutes
- Description: The inhibitory potency of compounds of the disclosure against the JAK2 kinase activity on STAT5 was evaluated using an MSD-platform plate-based assay format. […] Cells were then lysed and pSTAT5 levels were quantitated using an MSD plate-based assay with anti-STAT5 antibodies. […]

Take a look at these entries with their results.
*Q* Report IC50 for C[C@@H]1CN(c2ccnn3cc(-c4ccc5cnn(C)c5c4)cc23)C(=O)[C@]1(C#N)C1CC1 tested on JAK2 kinase activity on STAT5 in TF1 cells (Homo sapiens).
*A* 5 to 10 µM

*Q* Give IC50 (JAK2 kinase activity on STAT5 in TF1 cells (Homo sapiens)) of the following molecule: C[C@@H]1CN(c2ccnn3cc(-n4ccnc4)cc23)C(=O)[C@]1(C#N)C1CC1
*A* > 10 µM

*Q* Could you share what IC50 was measured for COc1ccc(-c2cc3c(N4C[C@@H](C)[C@@](C#N)(C5CC5)C4=O)ccnn3c2)cn1 , tested on JAK2 kinase activity on STAT5 in TF1 cells (Homo sapiens)?
*A* 5 to 10 µM

Proceeding to the next molecule to report its IC50.
*Q* # query: IC50 | item C[C@@H]1CN(c2nc(-c3cnc4c(c3)CCN4)cn3nccc23)C(=O)[C@]1(C#N)C1CC1 | system: JAK2 kinase activity on STAT5 in TF1 cells (Homo sapiens)
*A* 0.1 to 1 µM

* * *

- TARGET SYSTEM: human JAK3 kinase domain (JH1) (Homo sapiens, UniProt P52333)
- Construct: recombinantly generated catalytic kinase (also known as JH1) domain of human JAK1, JAK2, JAK3 and TYK2
- Sequence (P52333 822-1111 limits assumed): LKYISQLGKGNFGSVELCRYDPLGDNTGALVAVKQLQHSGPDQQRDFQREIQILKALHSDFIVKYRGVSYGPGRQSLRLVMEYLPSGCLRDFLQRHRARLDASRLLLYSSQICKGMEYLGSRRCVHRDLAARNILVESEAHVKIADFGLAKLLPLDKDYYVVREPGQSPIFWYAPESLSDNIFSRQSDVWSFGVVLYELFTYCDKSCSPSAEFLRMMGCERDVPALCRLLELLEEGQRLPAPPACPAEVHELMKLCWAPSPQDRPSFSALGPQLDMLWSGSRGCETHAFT
- ASSAY DETAILS: JH1 biochemical assay for JAK3 (ADP-Glo kinase assay, recombinant JH1 catalytic domain, JAK3-974 peptide, 4 μM ATP)
- CONDITION DETAILS: JAK3 JH1, ADP-Glo
- Procedure: Compounds of the disclosure were assessed for their ability to inhibit TYK2, JAK1, JAK2, and JAK3 activity. The inhibitory properties of the compounds of the disclosure described herein can be evidenced by testing in any one of the following protocols. The kinase activity of recombinantly generated catalytic kinase (also known as JH1) domain of human JAK1, JAK2, JAK3 and TYK2 were evaluated in a plate-based assay using the ADP-Glo™ Kinase Assay platform. […]
Could you please report measured IC50 for the items listed next?

*Q* Suppose we examine the compound Cc1cc(-c2cc(N3C[C@@H](C)[C@@](C#N)(C4CC4)C3=O)c3ccnn3c2)n[nH]1 ; what IC50 value has been reported?
*A* 100 to 1000 nM

Below are some compounds; for each one, tell me its IC50.
1. C[C@@H]1CN(c2nc(-c3cnn(C4CCCCC4)c3)cn3ncc(F)c23)C(=O)[C@]1(C#N)C1CC1
2. Cc1cnn(-c2cc3nccc(N4C[C@@H](C)[C@@](C#N)(C5CC5)C4=O)c3o2)c1

*A*
1. < 100 nM
2. 1000 to 5000 nM

* * *

I'd appreciate it if you could supply IC50 values for the items below.
- TARGET SYSTEM: human TYK2 kinase domain (JH1) (Homo sapiens, UniProt P29597)
- Construct: recombinantly generated catalytic kinase (also known as JH1) domain of human JAK1, JAK2, JAK3 and TYK2
- Sequence (P29597 897-1176 limits assumed): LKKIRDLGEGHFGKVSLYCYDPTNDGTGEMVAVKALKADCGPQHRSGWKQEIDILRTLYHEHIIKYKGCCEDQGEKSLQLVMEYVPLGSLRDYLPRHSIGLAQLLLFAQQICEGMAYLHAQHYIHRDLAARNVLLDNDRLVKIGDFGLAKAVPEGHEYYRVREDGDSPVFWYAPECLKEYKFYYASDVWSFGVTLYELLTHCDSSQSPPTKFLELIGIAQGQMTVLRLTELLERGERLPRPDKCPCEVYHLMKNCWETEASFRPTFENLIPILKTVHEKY
- ASSAY DETAILS: JH1 biochemical assay for TYK2 (ADP-Glo kinase assay, recombinant JH1 catalytic domain, JAK3-974 peptide, 10 μM ATP)
- CONDITION DETAILS: TYK2 JH1, ADP-Glo
Structures can show the parent of a compound that is named as a salt.

# count of solved cases: 3
*Q* Given C[C@@H]1CN(c2nc(-c3cnn(C4CCOCC4)c3)cn3ncc(F)c23)C(=O)[C@]1(C#N)C1CC1 , state its recorded IC50.
*A* < 5 nM

*Q* Consider the molecule shown here: C[C@@H]1CN(c2ccnn3cc(-c4cnn(C5CCN(C)CC5)c4)cc23)C(=O)[C@]1(C#N)C1CC1 What is its recorded IC50?
*A* < 5 nM

*Q* Need IC50, item C[C@@H]1CN(c2nc(-c3cnn(C)c3)cc3nccn23)C(=O)[C@]1(C#N)C1CC1
*A* > 100 nM

Now examine the next entry.
*Q* Look up IC50: C[C@@H]1CN(c2nc(-c3cccnc3OC(F)F)cn3nccc23)C(=O)[C@]1(C#N)C1CC1 [Example 256, trifluoroacetate]
*A* > 100 nM

* * *

- TARGET SYSTEM: human JAK1 kinase domain (JH1) (Homo sapiens, UniProt P23458)
- Construct: recombinantly generated catalytic kinase (also known as JH1) domain of human JAK1, JAK2, JAK3 and TYK2
- Sequence (P23458 875-1153 limits assumed): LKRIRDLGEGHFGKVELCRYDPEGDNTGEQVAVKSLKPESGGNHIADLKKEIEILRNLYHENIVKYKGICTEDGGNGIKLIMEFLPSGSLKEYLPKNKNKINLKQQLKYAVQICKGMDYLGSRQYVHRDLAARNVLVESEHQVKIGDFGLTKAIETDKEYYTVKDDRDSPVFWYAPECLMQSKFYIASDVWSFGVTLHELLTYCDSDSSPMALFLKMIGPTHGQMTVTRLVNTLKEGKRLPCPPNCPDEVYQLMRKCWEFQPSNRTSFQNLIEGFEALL
- ASSAY DETAILS: JH1 biochemical assay for JAK1 (ADP-Glo kinase assay, recombinant JH1 catalytic domain, JAK3-342 peptide, 35 μM ATP)
- CONDITION DETAILS: JH1 kinase domain, ADP-Glo
Where a name gives a salt, the structure may show the parent alone.
I'd be grateful if you could share measured IC50 for these entries.

*Q* Entry Cc1cc(-c2cc3c(N4C[C@@H](C)[C@@](C#N)(C5CC5)C4=O)ccnn3c2)ncc1F [Example 142, trifluoroacetate] , system human JAK1 kinase domain (JH1) (Homo sapiens, UniProt P23458): what IC50 was measured?
*A* 1 to 5 µM

List reported IC50 for each of these compounds:
1. C[C@@H]1CN(c2ccnn3cc(-c4cnc5n4CCCC5)cc23)C(=O)[C@]1(C#N)C1CC1 [Example 100, trifluoroacetate]
2. Cc1cc(-c2cc3c(N4C[C@@H](C)[C@@](C#N)(C5CC5)C4=O)ccnn3c2)ncc1C#N [Example 144, trifluoroacetate]
3. C[C@@H]1CN(c2ccnn3cc(-c4ccc5cncn5c4)cc23)C(=O)[C@]1(C#N)C1CC1 [Example 51]

*A*
["1 to 5 µM", "1 to 5 µM", "< 0.1 µM"]

# per-item lookup of IC50; items listed below
1. Cc1cc(-c2cc3c(N4C[C@@H](C)[C@@](C#N)(C5CC5)C4=O)ccnn3c2)ccn1 [Example 77]
2. COc1cncc(-c2cc3c(N4C[C@@H](C)[C@@](C#N)(C5CC5)C4=O)ccnn3c2)n1 [Example 126, trifluoroacetate]

*A*
1. < 0.1 µM
2. 0.1 to 1 µM
